- Tested on: Rattus norvegicus
- PROCEDURE_DETAILS: Mean excretion of sodium in conscious rats at a dose of 3.0 mg/kg given orally
- Type: ADME, organism-based
- Set-up: dose 3 mg/kg, route oral
- CONDITION_CONTEXT: in vivo, po
ASSAY_METRIC: Mean excretion of Na+ (m equiv)

| COMPOUND | ASSAY_METRIC | UNITS_LABEL | REPORTED_RESULT |
| --- | --- | --- | --- |
| COc1cccc(C(CN(C)C)c2nnc3n2-c2ccc(Cl)cc2C(c2ccccc2)=NC3)c1 (stereo not given) | Mean excretion of Na+ | m equiv | 0.79 |
| CN(C)CCc1nnc2n1-c1ccc(Br)cc1C(c1ccccc1)=NC2 | Mean excretion of Na+ | m equiv | 0.78 |
| CN(C)CCc1nnc2n1-c1ccc(Br)cc1C(c1ccccn1)=NC2 | Mean excretion of Na+ | m equiv | 0.79 |
| CN(C)CC(c1ccccc1Cl)c1nnc2n1-c1ccc(Cl)cc1C(c1ccccc1)=NC2 (stereo not given) | Mean excretion of Na+ | m equiv | 0.81 |
| CN(C)CC(c1ccccc1)c1nnc2n1-c1ccc(Cl)cc1C(c1ccccc1)=NC2 (stereo not given) | Mean excretion of Na+ | m equiv | 0.82 |

###

- Test system: Rattus norvegicus
- PROCEDURE_DETAILS: Mean excretion of […] in conscious rats at a dose of 1.0 mg/kg given orally
- Assay type: ADME, organism-based
- Set-up: dose 1 mg/kg, route oral
- CONDITION_CONTEXT: in vivo, po
Tag: yes (1) if measured Mean excretion of Na+ is not below 0.9 m equiv, no (0) if it is.

| COMPOUND | MEASURED_ON | LABEL_CLASS |
| --- | --- | --- |
| CN(C)CC(c1ccccc1)c1nnc2n1-c1ccc(Br)cc1C(c1ccccc1)=NC2 (configuration not stated) | Rattus norvegicus | no (0) |
| NS(=O)(=O)c1cc2c(cc1Cl)NCNS2(=O)=O [HYDROCHLOROTHIAZIDE] | Rattus norvegicus | yes (1) |
| CN(C)CC(c1ccccc1Cl)c1nnc2n1-c1ccc(Cl)cc1C(c1ccccc1)=NC2 (configuration not stated) | Rattus norvegicus | yes (1) |
| COc1ccccc1C(CN(C)C)c1nnc2n1-c1ccc(Cl)cc1C(c1ccccc1)=NC2 (configuration not stated) | Rattus norvegicus | no (0) |
| I.NCC(c1ccccc1)c1nnc2n1-c1ccc(Cl)cc1C(c1ccccc1)=NC2 (configuration not stated) | Rattus norvegicus | no (0) |
| CN(C)CCc1nnc2n1-c1ccc(Br)cc1C(c1ccccn1)=NC2 | Rattus norvegicus | no (0) |
| CSc1ccc2c(c1)C(c1ccccc1)=NCc1nnc(C(CN(C)C)c3ccccc3)n1-2 (configuration not stated) | Rattus norvegicus | yes (1) |

###

- System: Rattus norvegicus
- PROCEDURE_DETAILS: Mean excretion of potassium in conscious rats at a dose of 3.0 mg/kg given orally
- Assay type: ADME, organism-based
- Set-up: dose 3 mg/kg, route oral
- CONDITION_CONTEXT: in vivo, po
Parameter: Mean excretion of K+. Scope: all listed entries.

| COMPOUND | Mean excretion of K+ |
| --- | --- |
| I.NCC(c1ccccc1)c1nnc2n1-c1ccc(Cl)cc1C(c1ccccc1)=NC2 (centres undefined) | 0.22 m equiv |
| CN(C)CC(c1ccccc1Cl)c1nnc2n1-c1ccc(Cl)cc1C(c1ccccc1)=NC2 (centres undefined) | 0.22 m equiv |
| CN(C)CC(c1ccccc1)c1nnc2n1-c1ccc(Cl)cc1C(c1ccccc1)=NC2 (centres undefined) | 0.22 m equiv |
| CN(C)CC(c1ccccc1)c1nnc2n1-c1ccc(I)cc1C(c1ccccc1)=NC2 (centres undefined) | 0.23 m equiv |
| CN(C)CCc1nnc2n1-c1ccc(Br)cc1C(c1ccccc1)=NC2 | 0.23 m equiv |
| Nc1nc(N)c2nc(-c3ccccc3)c(N)nc2n1 | 0.1 m equiv |
| COc1ccccc1C(CN(C)C)c1nnc2n1-c1ccc(Cl)cc1C(c1ccccc1)=NC2 (centres undefined) | 0.24 m equiv |
| CC1N=C(c2ccccc2)c2cc(Cl)ccc2-n2c1nnc2C(CN(C)C)c1ccccc1 (centres undefined) | 0.24 m equiv |
| CN(C)CC(c1ccccc1)c1nnc2n1-c1ccc(Br)cc1C(c1ccccc1)=NC2 (centres undefined) | 0.17 m equiv |
